Origin of the recorded values: patent US20250051347A1

- Assay Details: Pharmacokinetics in mice (plasma exposure after oral administration)
- Assay type: in vivo
- Details: mouse, ICR mice, oral (i.g.) 3 mg/kg, read-out: After oral administration of 3 mg/kg, mouse plasma exposure AUCinf
Outcome Measure: AUC(0-inf)

Molecule	Readout Value
CC(C)(c1ccc(OCc2ccnc(N3CC4(COC4)C3)n2)cc1)c1ccc(C(=O)NCCNc2ccc3c(c2)C(=O)N(C2CCC(=O)NC2=O)C3=O)cc1 (stereo not drawn) [Example 501]	1000 to 5000 ng·h/mL
CC(C)(c1ccc(Oc2cnc(C#N)nc2)cc1)c1ccc(O[C@H]2C[C@H](Nc3ccc4c(c3)C(=O)N(C3CCC(=O)NC3=O)C4=O)C2)cc1 (stereo partly drawn) [Example 97]	5000 to 30000 ng·h/mL
CC(=O)c1ncc(Oc2ccc(C(C)(C)c3ccc(O[C@H]4C[C@H](Nc5ccc6c(c5)C(=O)N(C5CCC(=O)NC5=O)C6=O)C4)cc3)cc2)cn1 (stereo partly drawn) [Example 119]	5000 to 30000 ng·h/mL
CC(O)c1ncc(Oc2ccc(C3(c4ccc(O[C@H]5C[C@H](Nc6ccc7c(c6)C(=O)N(C6CCC(=O)NC6=O)C7=O)C5)cc4)CCCCC3)cc2)cn1 (stereo partly drawn) [Example 528]	5000 to 30000 ng·h/mL
Cc1nc(-c2ccnc(Oc3ccc(C(C)(C)c4ccc(O[C@H]5C[C@H](Nc6ccc7c(c6)C(=O)N(C6CCC(=O)NC6=O)C7=O)C5)cc4)cc3)n2)no1 (stereo partly drawn) [Example 166]	5000 to 30000 ng·h/mL
CC(C)(c1ccc(Oc2ccnc(-n3nccn3)c2)cc1)c1ccc(O[C@H]2C[C@H](Nc3ccc4c(c3)C(=O)N(C3CCC(=O)NC3=O)C4=O)C2)cc1 (stereo partly drawn) [Example 164]	5000 to 30000 ng·h/mL

###

Listed next: entries and their corresponding DC50.
- Test Target: androgen receptor (AR) splicing variant AR-v7 (Homo sapiens, UniProt P10275)
- Construct: The degradation activity of compounds on AR-v7 in 22RV1 cells; host or cells: 22RV1 cells
- Sequence (P10275 1-644 isoform P10275-3): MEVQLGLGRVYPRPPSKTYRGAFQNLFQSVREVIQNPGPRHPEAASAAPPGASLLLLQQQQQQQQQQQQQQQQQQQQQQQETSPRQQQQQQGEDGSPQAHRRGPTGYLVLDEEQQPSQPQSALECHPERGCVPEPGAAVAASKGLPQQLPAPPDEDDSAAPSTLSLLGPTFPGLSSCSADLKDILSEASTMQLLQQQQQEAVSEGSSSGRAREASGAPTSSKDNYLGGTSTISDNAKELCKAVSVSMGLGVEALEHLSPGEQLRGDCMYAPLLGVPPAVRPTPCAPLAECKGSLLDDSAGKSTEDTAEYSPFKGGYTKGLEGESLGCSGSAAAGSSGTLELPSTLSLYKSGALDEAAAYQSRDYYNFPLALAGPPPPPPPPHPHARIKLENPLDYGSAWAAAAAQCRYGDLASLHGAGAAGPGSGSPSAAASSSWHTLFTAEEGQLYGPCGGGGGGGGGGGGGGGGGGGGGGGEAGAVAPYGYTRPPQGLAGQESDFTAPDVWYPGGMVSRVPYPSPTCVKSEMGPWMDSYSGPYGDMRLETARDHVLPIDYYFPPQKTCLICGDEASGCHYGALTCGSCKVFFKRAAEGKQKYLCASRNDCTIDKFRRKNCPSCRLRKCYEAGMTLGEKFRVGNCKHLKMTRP
- Assay Details: Degradation activity on androgen receptor splicing variant AR-v7 in 22RV1 cells (ELISA)
- Type: cell-based
- Details: AR-v7 degradation in 22RV1 cells, 48 h, numeric values
Outcome Measure: DC50

Compound	Readout Value
CC(C)(c1ccc(OCCCCCCN2CCC(CN3CCN(c4ccc5c(c4)C(=O)N(C4CCC(=O)NC4=O)C5=O)CC3)CC2)cc1)c1ccc(OCc2ccnc(NS(C)(=O)=O)n2)cc1 (stereo not drawn)	6.33 µM
CC(=O)c1nccc(COc2ccc(C(C)(C)c3ccc(OCC4CCN(c5ccc6c(c5)C(=O)N(C5CCC(=O)NC5=O)C6=O)C4)cc3)cc2)n1 (stereo not drawn)	≥ 10 µM
CC(C)(c1ccc(OCCCOCCCNc2ccc3c(c2)C(=O)N(C2CCC(=O)NC2=O)C3=O)cc1)c1ccc(OCc2ccnc(NS(C)(=O)=O)n2)cc1 (stereo not drawn)	> 10 µM
CC(=O)c1cccc(COc2ccc(C(C)(C)c3ccc(OCCCCCCCCOCCCCNc4ccc5c(c4)C(=O)N(C4CCC(=O)NC4=O)C5=O)cc3)cc2)n1 (stereo not drawn)	> 10 µM
CC(C)(c1ccc(OCCCCCCCCOCCCCNc2ccc3c(c2)C(=O)N(C2CCC(=O)NC2=O)C3=O)cc1)c1ccc(OCc2nccc(NS(C)(=O)=O)n2)cc1 (stereo not drawn)	> 10 µM
CC(=O)c1nccc(COc2ccc(C(C)(C)c3ccc(OC4CCN(c5ccc6c(c5)C(=O)N(C5CCC(=O)NC5=O)C6=O)CC4)cc3)cc2)n1 (stereo not drawn)	> 10 µM

###

- Test Target: androgen receptor (AR) splicing variant AR-v7 (Homo sapiens, UniProt P10275)
- Construct: The degradation activity of compounds on AR-v7 in 22RV1 cells; host or cells: 22RV1 cells
- Assay Details: Degradation activity on androgen receptor splicing variant AR-v7 in 22RV1 cells (ELISA)
- Type: cell-based
- Details: AR-v7 degradation in 22RV1 cells, 48 h, numeric values
Parameter DC50: see the listing below.

Compound	DC50
CC(C)(c1ccc(OCCCCCCCCOCCCCNc2ccc3c(c2)C(=O)N(C2CCC(=O)NC2=O)C3=O)cc1)c1ccc(OCc2cncc(NS(C)(=O)=O)n2)cc1 (centres unmarked)	> 10 µM
CC(=O)c1nccc(COc2ccc(C(C)(C)c3ccc(OCCCCCCCCOCCN4CCN(c5ccc6c(c5)C(=O)N(C5CCC(=O)NC5=O)C6=O)CC4)cc3)cc2)n1 (centres unmarked)	> 10 µM
CC(=O)c1ncc(COc2ccc(C(C)(C)c3ccc(OCCCCCCCCOCCCCNc4ccc5c(c4)C(=O)N(C4CCC(=O)NC4=O)C5=O)cc3)cc2)cn1 (centres unmarked)	> 2 µM
CC(=O)c1nccc(COc2ccc(C(C)(C)c3ccc(OCCCCCNc4ccc5c(c4)C(=O)N(C4CCC(=O)NC4=O)C5=O)cc3)cc2)n1 (centres unmarked)	> 10 µM
CC(C)(c1ccc(OCc2ccnc(NS(C)(=O)=O)n2)cc1)c1ccc(OC2CCN(CCCCCOCCCCNc3ccc4c(c3)C(=O)N(C3CCC(=O)NC3=O)C4=O)CC2)cc1 (centres unmarked)	> 10 µM
CC(C)(c1ccc(OCCCCCNc2ccc3c(c2)C(=O)N(C2CCC(=O)NC2=O)C3=O)cc1)c1ccc(OCc2ccnc(NS(C)(=O)=O)n2)cc1 (centres unmarked)	> 5 µM
CC(C)(c1ccc(OCc2ccnc(NS(C)(=O)=O)n2)cc1)c1ccc(OCC2CCN(CCCOCCCCNc3ccc4c(c3)C(=O)N(C3CCC(=O)NC3=O)C4=O)CC2)cc1 (centres unmarked)	> 10 µM
CC(C)(c1ccc(OCCCCCCCCCN2CCN(C3CN(c4ccc5c(c4)C(=O)N(C4CCC(=O)NC4=O)C5=O)C3)CC2)cc1)c1ccc(OCc2ccnc(NS(C)(=O)=O)n2)cc1 (centres unmarked)	> 10 µM
CC(O)c1nccc(COc2ccc(C(C)(C)c3ccc(OCCCCCCCCOCCN4CCN(c5ccc6c(c5)C(=O)N(C5CCC(=O)NC5=O)C6=O)CC4)cc3)cc2)n1 (centres unmarked)	> 10 µM
CC(=O)c1nccc(COc2ccc(C(C)(C)c3ccc(OC4CCCN(c5ccc6c(c5)C(=O)N(C5CCC(=O)NC5=O)C6=O)C4)cc3)cc2)n1 (centres unmarked)	> 10 µM
CC(=O)c1nccc(COc2ccc(C(C)(C)c3ccc(OCC4CCN(c5cccc6c5C(=O)N(C5CCC(=O)NC5=O)C6=O)C4)cc3)cc2)n1 (centres unmarked)	> 10 µM

###

- Assay Details: Pharmacokinetics in mice (plasma exposure after oral administration)
- Type: in vivo
- Details: mouse, ICR mice, oral (i.g.) 3 mg/kg, read-out: After oral administration of 3 mg/kg, mouse plasma exposure AUCinf
Listing of recorded AUC(0-inf) by entry.
Outcome Measure: AUC(0-inf)

Compound	Readout Value
C=CC(c1ccc(Oc2ccc(-c3noc(C)n3)nn2)cc1)c1ccc(O[C@H]2C[C@H](Nc3ccc4c(c3)C(=O)N(C3CCC(=O)NC3=O)C4=O)C2)cc1 (stereo partly drawn) [Example 259]	5000 to 30000 ng·h/mL
Cc1noc(-c2cccc(COc3ccc(C(C)(C)c4ccc(O[C@H]5C[C@H](Nc6ccc7c(c6)C(=O)N(C6CCC(=O)NC6=O)C7=O)C5)cc4)cc3)n2)n1 (stereo partly drawn) [Example 282]	1000 to 5000 ng·h/mL
CC(O)c1ncc(Oc2ccc(C(C)(C)c3ccc(O[C@H]4C[C@H](Nc5ccc6c(c5)C(=O)N(C5CCC(=O)NC5=O)C6=O)C4)cn3)cc2)cn1 (stereo partly drawn) [Example 223]	1000 to 5000 ng·h/mL

###

- Test Target: androgen receptor (AR) splicing variant AR-v7 (Homo sapiens, UniProt P10275)
- Construct: The degradation activity of compounds on AR-v7 in 22RV1 cells; host or cells: 22RV1 cells
- Assay Details: Degradation activity on androgen receptor splicing variant AR-v7 in 22RV1 cells (ELISA)
- Format: cell-based
- Details: AR-v7 degradation in 22RV1 cells, 48 h, numeric values
Outcome Measure: DC50

Compound	Test Target	Readout Value
CN1CCC2(CCN(c3nccc(COc4ccc(C(C)(C)c5ccc(OCCCCCCCCOCCCCNc6ccc7c(c6)C(=O)N(C6CCC(=O)NC6=O)C7=O)cc5)cc4)n3)C2)C1 (centres unmarked) [Example 384]	androgen receptor (AR) splicing variant AR-v7 (Homo sapiens, UniProt P10275)	> 5 µM
CC(C)(c1ccc(OCCCCCCCOCCCN2CCN(c3ccc4c(c3)C(=O)N(C3CCC(=O)NC3=O)C4=O)CC2)cc1)c1ccc(OCc2ccnc(NS(C)(=O)=O)n2)cc1 (centres unmarked) [Example 7]	androgen receptor (AR) splicing variant AR-v7 (Homo sapiens, UniProt P10275)	> 10 µM
CC(C)(c1ccc(OCc2ccnc(NS(C)(=O)=O)n2)cc1)c1ccc(OC[C@H]2CC[C@H](CN3CCC(CN4CCC5(CC4)CN(c4ccc6c(c4)C(=O)N(C4CCC(=O)NC4=O)C6=O)C5)CC3)CC2)cc1 (some centres unmarked) [Example 39]	androgen receptor (AR) splicing variant AR-v7 (Homo sapiens, UniProt P10275)	> 10 µM
CC(C)(c1ccc(OCCCCCCCCN2CC3(C2)CN(c2ccc4c(c2)C(=O)N(C2CCC(=O)NC2=O)C4=O)C3)cc1)c1ccc(OCc2ccnc(NS(C)(=O)=O)n2)cc1 (centres unmarked) [Example 30]	androgen receptor (AR) splicing variant AR-v7 (Homo sapiens, UniProt P10275)	> 10 µM
CC(C)(c1ccc(OCCCCCCCCOCCCCNc2ccc3c(c2)C(=O)N(C2CCC(=O)NC2=O)C3=O)cc1)c1ccc(OCc2ccnc(-n3cccn3)n2)cc1 (centres unmarked) [Example 437]	androgen receptor (AR) splicing variant AR-v7 (Homo sapiens, UniProt P10275)	> 10 µM
CC(C)(c1ccc(OCCCCCCOCCCCN2CCN(c3ccc4c(c3)C(=O)N(C3CCC(=O)NC3=O)C4=O)CC2)cc1)c1ccc(OCc2ccnc(NS(C)(=O)=O)n2)cc1 (centres unmarked) [Example 8]	androgen receptor (AR) splicing variant AR-v7 (Homo sapiens, UniProt P10275)	5.27 µM
CC(C)(c1ccc(OCc2ccnc(NS(C)(=O)=O)n2)cc1)c1ccc(OC2CCN(c3cccc4c3C(=O)N(C3CCC(=O)NC3=O)C4=O)CC2)cc1 (centres unmarked) [Example 35]	androgen receptor (AR) splicing variant AR-v7 (Homo sapiens, UniProt P10275)	> 10 µM
CC(C)(c1ccc(OCCCCCOCCCOCC2CCN(c3ccc4c(c3)C(=O)N(C3CCC(=O)NC3=O)C4=O)C2)cc1)c1ccc(OCc2ccnc(NS(C)(=O)=O)n2)cc1 (centres unmarked) [Example 52]	androgen receptor (AR) splicing variant AR-v7 (Homo sapiens, UniProt P10275)	> 10 µM
CN(c1nccc(COc2ccc(C(C)(C)c3ccc(OCCCCCCCCOCCCCNc4ccc5c(c4)C(=O)N(C4CCC(=O)NC4=O)C5=O)cc3)cc2)n1)S(C)(=O)=O (centres unmarked) [Example 25]	androgen receptor (AR) splicing variant AR-v7 (Homo sapiens, UniProt P10275)	> 10 µM
CC(C)(c1ccc(OCc2ccnc(NS(C)(=O)=O)n2)cc1)c1ccc(OCC2CN(c3ccc4c(c3)C(=O)N(C3CCC(=O)NC3=O)C4=O)C2)cc1 (centres unmarked) [Example 48]	androgen receptor (AR) splicing variant AR-v7 (Homo sapiens, UniProt P10275)	> 10 µM
CC(C)(c1ccc(OCCCOCCCOCCCNc2cccc3c2C(=O)N(C2CCC(=O)NC2=O)C3=O)cc1)c1ccc(OCc2ccnc(NS(C)(=O)=O)n2)cc1 (centres unmarked) [Example 19]	androgen receptor (AR) splicing variant AR-v7 (Homo sapiens, UniProt P10275)	6.86 µM
